These entries and their values trace back to paper PMC9736374.

Each entry below carries its reported chromatographic logP.
Test: Lipophilicity by RP-TLC
Format: physicochemical
Conditions: Tris buffer pH 7.4/acetone, read-out: logPTLC
assay_metric: chromatographic logP

> print(dat)
                      smiles.representation   val
1  C#CCOc1ccc2c(c1)Nc1c(c[n+](C)c3ccccc13)S2  1.74
2   C=CCOc1ccc2c(c1)Sc1c[n+](C)c3ccccc3c1N2  2.98
3   C=CCOc1cccc2c1Nc1c(c[n+](C)c3ccccc13)S2  2.29
4  C=CCOc1ccc2c(c1)Nc1c(c[n+](C)c3ccccc13)S2  2.47
5  C[n+]1cc2c(c3ccccc31)Nc1c(OCc3ccccc3)cccc1S2   3.1
6    CCCOc1cccc2c1Nc1c(c[n+](C)c3ccccc13)S2  1.18
7  C[n+]1cc2c(c3ccccc31)Nc1ccc(OCc3ccccc3)cc1S2  3.41
8    CCCOc1ccc2c(c1)Sc1c[n+](C)c3ccccc3c1N2  1.65
9   C#CCOc1cccc2c1Nc1c(c[n+](C)c3ccccc13)S2   2.2
